FYI, the data here is from ChEMBL document CHEMBL1201862.

Tested on: SK-MEL-28
ASSAY_COMMENT: NCI tumour cell line growth inhibition, 48 h
The source made the active and inactive calls. Cut-off read from the data, not from the text of the source: active = GI50 up to about 1.1 µM and inactive = higher.
GI50 values for the compounds below.

CCCCNC1=C(C(=O)OCC)/C(=N/NC(=O)c2ccccc2O)CO1
18.5 µM (inactive)
O=C1C(=Cc2cccc(Cl)c2)N=C(c2ccccc2)N1n1c(-c2ccccc2)nc2ccccc2c1=O
50.2 µM (inactive)
CC(C)c1cc(C(C)C)c(Cl)c(Cl)c1O.CC(C)c1cc(Cl)c(O)c(C(C)C)c1Cl
24.1 µM (inactive)
O=[N+]([O-])c1nccn1CC1OC(n2ccnc2[N+](=O)[O-])C(O)C(O)C1O (stereo not drawn)
> 100 µM (inactive)
Cc1cc2ncn(CC(=O)O)c2cc1C
> 100 µM (inactive)

Lab note: measured GI50 of Cc1ccc(S(=O)(=O)C2=C(C(C)C)N=NC2(C)C)cc1 was > 100 µM (inactive)

Lab note: measured GI50 of c1cc2nnc1SCCCSc1ccc(nn1)SCCCSc1ccc(nn1)SCCCS2 was > 100 µM (inactive)

* * *

GI50 values for the compounds below.
Test system: BT-549
ASSAY_COMMENT: NCI tumour cell line growth inhibition, 48 h
The source made the active and inactive calls. No stated cut-off is given here; in the data, active = GI50 up to about 1.1 µM and inactive = higher.

Please review the following examples before continuing.
CC1OC(OC2C(O)COC(OC3C(C)OC(OC4C(OC(=O)[C@]56CCC(C)(C)C[C@@H]5C5=CCC7[C@@]8(C)C[C@H](O)[C@H](OC9OC(CO)C(O)C(O)C9O)[C@@](C)(CO)[C@@H]8CC[C@@]7(C)[C@]5(C)CC6)OCC(O)C4O)C(O)C3OC3OCC(O)(CO)C3O)C2O)C(O)C(O)C1O (some centres undefined)
16.6 µM (inactive)
COC(=O)[C@]12CSC[C@H]1C[C@H](c1ccc(N(C)C)cc1)N2
> 100 µM (inactive)
CCCCCCCCOP(=O)(O)OP(=O)(O)OCC1OC(n2ccc(N)nc2=O)C(O)C1O (centres undefined)
> 100 µM (inactive)

Reported BT-549 GI50 for item O=S1(=O)OCc2ccccc21 was > 100 µM (inactive)

* * *

GI50 values for the compounds below.
Tested on: SF-539
ASSAY_COMMENT: NCI tumour cell line growth inhibition, 48 h
Calls of active or inactive are those of the source. Rule as the data show it: active = GI50 up to about 1.1 µM and inactive = higher.

Please review the following examples before continuing.
CC(C)(C)C(=O)Nc1c(C=O)ccc2[nH]cnc12
> 100 µM (inactive)
O=C(O)c1ccccc1/C=N\N(CCO)C1=NCCN1
> 100 µM (inactive)
Cc1ccccc1C(=O)C#Cc1cn(C2CC(O)C(CO)O2)c(=O)[nH]c1=O (stereo not drawn)
> 100 µM (inactive)
[N-]=[N+]=NC1(c2ccccc2)C(=O)Nc2ccccc2C1=O (stereo not drawn)
36.8 µM (inactive)
C#CC1(O)CCC2[C@@H]3CCc4cc(Oc5nc(F)nc(-c6c7ccccc7c(SCC)n6CCC)n5)ccc4C3CC[C@@]21C (stereo partly drawn)
58.9 µM (inactive)
CCn1c(SCC(=O)N/N=C2\SCC(=O)N2c2ccc(C)cc2)nc2ccccc2c1=O
17.6 µM (inactive)

Lab note: measured GI50 of CC(=N/NC(=S)N1CCCCCC1)/C(C)=N\NC(=S)N1CCCCCC1 was 20.7 µM (inactive)

Lab note: measured GI50 of CC(=O)O[C@H]1C(=O)[C@@]2(C)C(C(OC(=O)c3ccccc3)[C@]3(O)CC(OC(=O)C(O)C(NC(=O)c4cccc(Cl)c4)c4ccccc4)C(C)=C1C3(C)C)[C@]1(OC(C)=O)CO[C@@H]1C[C@@H]2O (stereo partly drawn) was 0.353 µM (active)

* * *

System: 786-0
ASSAY_COMMENT: NCI tumour cell line growth inhibition, 48 h
Calls of active or inactive are those of the source. No stated cut-off is given here; in the data, active = GI50 up to about 1.1 µM and inactive = higher. Where a SMILES comes first, the peptide text is derived from it. The star is where a group is joined. OSu = O=C1CCC(=O)N1O*; OBn = c1ccc(CO*)cc1; Bn = c1ccc(C*)cc1
GI50 values for the compounds below.

Please review the following examples before continuing.
O=C1Nc2ccccc2NC1C1OC(c2ccccc2)=CC1=O (stereo not given)
> 100 µM (inactive)
CCOC(=O)C1C(=O)CC(=O)C2CCCCC21 (stereo not given)
> 100 µM (inactive)
CO/N=C(\C)c1cccc(Nc2c3ccccc3nc3occc23)c1
14.7 µM (inactive)
CCn1c(SCC(=O)NNC(=S)NC)nc2ccccc2c1=O
> 100 µM (inactive)
CC1CC(=O)CC[C@@H]1OCc1ccccc1 (stereo not given in full)
> 100 µM (inactive)
COc1ccc(-c2c(C3=NCCCN3)nnn2-c2ccccc2)cc1
> 100 µM (inactive)
O=S1(=O)OCc2ccccc21
60.1 µM (inactive)
C/C=C\C(CC(=O)O)CC(=O)NCCC1CN(S(=O)(=O)C(F)(F)F)c2ccccc21 (stereo not given)
> 100 µM (inactive)
CC(C)CC(NC(=O)C(N)CCC(=O)OCc1ccccc1)C(=O)NC(COCc1ccccc1)C(=O)NC(Cc1ccccc1)C(=O)ON1C(=O)CCC1=O (stereo not given) (H-E(OBn)LS(Bn)F-OSu; configuration not given here)
39.1 µM (inactive)
CC(C)C1=CC(=O)C(C)(C2C(O)CC3(C)C4CC=C5C(CCC(OC6OC(CO)C(O)C(O)C6OC6OC(C)C(O)C(O)C6O)C5(C)C)C4(C)C(=O)CC23C)O1 (stereo not given)
> 100 µM (inactive)

Lab note: measured GI50 of CC(C)Oc1cc(O)c2c(c1)OCC=C2CCC(=O)O was 26.3 µM (inactive)

Lab note: measured GI50 of CCC(=O)Nc1ccc(NCC(=O)Nc2ccc(OC)cc2)cc1 was 20.3 µM (inactive)

Lab note: measured GI50 of O=P1(C(O)/C=C/c2ccccc2)N(Cc2ccccc2)[C@H](c2ccccc2)[C@@H](c2ccccc2)N1Cc1ccccc1 (stereo not given in full) was 23.7 µM (inactive)

Lab note: measured GI50 of Brc1ccc2[nH]cc(-c3nc(-c4c[nH]c5ccccc45)cs3)c2c1 was 2.86 µM (inactive)

Lab note: measured GI50 of COc1nc2nccnc2c(=O)n1C was > 10 µM (inactive)

Lab note: measured GI50 of N#Cc1c(N)nc2c(/N=N\c3ccccc3)c(N)nn2c1Nc1ccccc1 was 18.6 µM (inactive)

Lab note: measured GI50 of [N-]=[N+]=Nc1ccccc1C(=O)N1C(=O)c2ccccc2C(=O)N(C(=O)c2ccccc2N=[N+]=[N-])c2ccccc21 was 28.4 µM (inactive)

Lab note: measured GI50 of CC1(C)C(O)C[C@]23CCC[C@](C)(C[C@@H](O)C12)C3 (stereo not given in full) was 32.9 µM (inactive)

Lab note: measured GI50 of CC1=NCCN=C(C)C1/N=N/c1ccc2[nH]c(C)nc2c1 was 11.7 µM (inactive)

Lab note: measured GI50 of O=C(Nc1ccc([N+](=O)[O-])cc1)C1C(=O)C(=O)N(c2ccc([N+](=O)[O-])cc2)C1=O (stereo not given) was 67.1 µM (inactive)

* * *

Tested on: EKVX
ASSAY_COMMENT: NCI tumour cell line growth inhibition, 48 h
Where a name gives a salt, the structure may show the parent alone. Activity calls are given as the source filed them. Cut-off read from the data, not from the text of the source: active = GI50 up to about 1.1 µM and inactive = higher.
GI50 values for the compounds below.

COc1ccc(/C=C2\CNC/C(=C\c3ccc(OC)cc3)C2=O)cc1
> 100 µM (inactive)
O=C(O)CCC(=O)c1ccc2sc3ccccc3c2c1
> 100 µM (inactive)
CCOC(=O)CSc1nc(-c2ccc(OC)cc2)c(C#N)c(=O)[nH]1
> 100 µM (inactive)
O=C1C(Cl)=C(Cl)C(=O)N1c1ccccc1Cl
> 100 µM (inactive)
C=C1C(=O)O[C@H]2C[C@@H]1[C@@H](O)[C@H](O)[C@@H](C)CCCC(C)=CCC[C@@]2(C)O
54 µM (inactive)

Reported EKVX GI50 for item O=c1oc2cc(O)ccc2c2[nH]c3cc(O)ccc3c12 was 26.5 µM (inactive)

Reported EKVX GI50 for item CCOC(=O)C(NC(=O)c1cccc(Cl)c1)(Nc1cccc(C)c1)C(F)(F)F (stereo not drawn) was 18.7 µM (inactive)

Reported EKVX GI50 for item CC(=O)N(C)c1ccc(Nc2cc(C)nc3ccc4nc[nH]c4c23)cc1 [ACODAZOLE HYDROCHLORIDE] was 18.7 µM (inactive)

* * *

GI50 values for the compounds below.
System: BT-549
ASSAY_COMMENT: NCI tumour cell line growth inhibition, 48 h
Activity calls are given as the source filed them. Rule as the data show it: active = GI50 up to about 1.1 µM and inactive = higher.

Reported BT-549 GI50 for item CCn1c(SCC(=O)N/N=C2\SCC(=O)N2c2ccc(C)cc2)nc2ccccc2c1=O was > 10 µM (inactive)

Reported BT-549 GI50 for item OC[C@H]1O[C@@H](n2cnc3c(S)ncnc32)[C@H](O)[C@@H]1O was > 2500 µM (inactive)

* * *

Test system: TK-10
ASSAY_COMMENT: NCI tumour cell line growth inhibition, 48 h
Calls of active or inactive are those of the source. No stated cut-off is given here; in the data, active = GI50 up to about 1.1 µM and inactive = higher.
// one of class 1 (active), class 0 (inactive), no free text

Past entries and their recorded results:
ON/N=C/c1cc2c(cc1Br)OCO2
class 0
C1=CC(=[N+]2N=C(c3ccccc3)CC2c2ccccc2)C=CC1=C1SC(c2ccccc2)(c2ccccc2)c2ccccc21.[O-][Cl+3]([O-])([O-])[O-] (stereo not drawn)
class 0
N/C(=N\O)N/N=C/c1cccs1
class 0
CC(=O)O/N=C(Cl)/C(Cl)=N/OC(C)=O
class 0
CCN1C=C/C(=C\C=C\c2cc[n+](CC)c3ccccc23)c2ccccc21
class 0

Query :: I'd appreciate the recorded outcome for CCOC(CN=C=S)OCC from this test.
Result :: class 0
